Each recorded value in this set is attributed to patent US20170144969A1.

# Tested on: human Red Blood Cells
# test.details: Haemolytic activity
# test.parameters: Table 6; human RBCs, 1 h at 37° C.
HC50 strictly less than 90 µM = yes. Otherwise no.

- compound.string: "CCCCCCCCCCCC(=O)N(CCCNC(=O)[C@@H](N)C(C)C)CCCNC(=O)[C@@H](N)C(C)C.O=C(O)C(F)(F)F.O=C(O)C(F)(F)F"
  class.name: "no"
- compound.string: "CCCCCCCCCCCCCC(=O)N(CCCNC(=O)[C@H](C)N)CCCNC(=O)[C@H](C)N.O=C(O)C(F)(F)F.O=C(O)C(F)(F)F"
  class.name: "no"
- compound.string: "CCCCCCCCCCCCCC(=O)N(CCCNC(=O)[C@@H](N)C(C)C)CCCNC(=O)[C@@H](N)C(C)C.O=C(O)C(F)(F)F.O=C(O)C(F)(F)F"
  class.name: "no"
- compound.string: "CCCCCCCCCCCCCC(=O)N(CCCNC(=O)[C@@H]1CCCN1)CCCNC(=O)[C@@H]1CCCN1.O=C(O)C(F)(F)F.O=C(O)C(F)(F)F"
  class.name: "no"
- compound.string: "CCCCCCCCCCCCCCCC(=O)N(CCCNC(=O)[C@@H]1CCCN1)CCCNC(=O)[C@@H]1CCCN1.O=C(O)C(F)(F)F.O=C(O)C(F)(F)F"
  class.name: "yes"
- compound.string: "CCCCCCCCCCCCCCCC(=O)N(CCCNC(=O)[C@@H](N)[C@@H](C)CC)CCCNC(=O)[C@@H](N)[C@@H](C)CC.O=C(O)C(F)(F)F.O=C(O)C(F)(F)F"
  class.name: "yes"
- compound.string: "CCCCCCCCCCCCCC(=O)N(CCCNC(=O)[C@@H](N)[C@@H](C)CC)CCCNC(=O)[C@@H](N)[C@@H](C)CC.O=C(O)C(F)(F)F.O=C(O)C(F)(F)F"
  class.name: "yes"
- compound.string: "CCCCCCCCCCCC(=O)N(CCCNC(=O)CN)CCCNC(=O)CN.O=C(O)C(F)(F)F.O=C(O)C(F)(F)F"
  class.name: "no"
- compound.string: "CCCCCCCCCCCCCCCC(=O)N(CCCNC(=O)[C@H](C)N)CCCNC(=O)[C@H](C)N.O=C(O)C(F)(F)F.O=C(O)C(F)(F)F"
  class.name: "yes"
- compound.string: "CCCCCCCCCCCCCC(=O)N(CCCNC(=O)CN)CCCNC(=O)CN.O=C(O)C(F)(F)F.O=C(O)C(F)(F)F"
  class.name: "no"
- compound.string: "CCCCCCCCCCCC(=O)N(CCCNC(=O)[C@@H](N)[C@@H](C)CC)CCCNC(=O)[C@@H](N)[C@@H](C)CC.O=C(O)C(F)(F)F.O=C(O)C(F)(F)F"
  class.name: "no"

###

# System: Enterococcus faecium (ATCC 19634)
# test.details: Minimum Inhibitory Concentration, micro-dilution broth
# Format: cell-based
# test.parameters: 24 h, 37° C.; read-out: Minimum Inhibitory Concentration E. faceium

- compound.string: "CCCCCCCCCCCCCCCCCC(=O)N(CCCNC(=O)[C@@H](N)Cc1ccccc1)CCCNC(=O)[C@@H](N)Cc1ccccc1.O=C(O)C(F)(F)F.O=C(O)C(F)(F)F"
  MIC: "11 µM"
- compound.string: "CCCCCCCCCCCCCC(=O)N(CCCNC(=O)[C@@H](N)Cc1c[nH]c2ccccc12)CCCNC(=O)[C@@H](N)Cc1c[nH]c2ccccc12.O=C(O)C(F)(F)F.O=C(O)C(F)(F)F"
  MIC: "2.5 µM"
- compound.string: "CCCCCCCCCCCCCCCC(=O)N(CCCNC(=O)[C@@H](N)Cc1c[nH]c2ccccc12)CCCNC(=O)[C@@H](N)Cc1c[nH]c2ccccc12.O=C(O)C(F)(F)F.O=C(O)C(F)(F)F"
  MIC: "5.4 µM"
